- MEASURED ON: Dual specificity tyrosine-phosphorylation-regulated kinase 1A (Homo sapiens)
- PROTOCOL DESCRIPTION: Inhibition of human DYRK1A transfected in HEK293T cells co-transfected with Renilla plasmid, pGL3-NFAT and NFATc1 assessed as derepression of NFAT-dependent luciferase activity measured after 48 hrs by luciferase assay
Mark 1 only when EC50 stays strictly below 70 nM. Values equal to the cut-off are 0.

CCOC(=O)c1cnc2ccc(-c3cc(Cl)c(O)c(Cl)c3)nc2c1N[C@H]1CC[C@H](CN)CC1 ... 1
CCOC(=O)c1cnc2ccc(-c3cc(Cl)c(O)c(Cl)c3)nc2c1N[C@H]1CC[C@H](CN(C)C)CC1 ... 1
CN(C)C[C@H]1CC[C@H](Nc2c(C#N)cnc3ccc(-c4cc(Cl)c(O)c(Cl)c4)nc23)CC1 ... 1

### Prompt State whether 70 nM exceeds EC50 recorded for `CN(C)C[C@H]1CC[C@H](Nc2c(C(N)=O)cnc3ccc(-c4cc(Cl)c(O)c(Cl)c4)nc23)CC1` .
### Response 1

### Prompt A record lists `CCOC(=O)c1cnc2ccc(-c3cc(Cl)c(O)c(Cl)c3)nc2c1N[C@H]1CC[C@H](C(N)=O)CC1` . Is its EC50 below 70 nM?
### Response 0

### Prompt hey, is EC50 for `CCOC(=O)c1cnc2ccc(-c3cc(Cl)c(O)c(Cl)c3)nc2c1N[C@H]1CC[C@H](CC(N)=O)CC1` lower than 70 nM or not?
### Response 1

### Prompt Field: below-cutoff. Rule: recorded EC50 strictly less than 70 nM. Subject: `CCOC(=O)c1cnc2ccc(-c3cc(C)c(O)c(C)c3)nc2c1N[C@H]1CC[C@H](CN(C)C)CC1`
### Response 1

### Prompt For this molecule, is EC50 lower than 70 nM? `CCOC(=O)c1cnc2ccc(-c3cc(Cl)c(O)c(Cl)c3)nc2c1N[C@H]1CC[C@H](CNC(C)=O)CC1`
### Response 1

### Prompt Confirm or reject: EC50 of `CCCCCNC(=O)c1cnc2ccc(-c3cc(Cl)c(O)c(Cl)c3)nc2c1N[C@H]1CC[C@H](CN(C)C)CC1` lies strictly below 70 nM
### Response 1

### Prompt is_below(EC50, 70 nM) for `CCNC(=O)c1cnc2ccc(-c3ccnc(N)c3)nc2c1N[C@H]1CC[C@H](CN(C)C)CC1` ?
### Response 1

### Prompt Please check: EC50 for `CCOC(=O)c1cnc2ccc(-c3ccnc(N)c3)nc2c1N[C@H]1CC[C@H](CN2CCCC2)CC1` , strictly under 70 nM or not?
### Response 0

### Prompt State whether 70 nM exceeds EC50 recorded for `CCCCNC(=O)c1cnc2ccc(-c3cc(Cl)c(O)c(Cl)c3)nc2c1N[C@H]1CC[C@H](C(N)=O)CC1` .
### Response 0

### Prompt Given `CC(C)CCNC(=O)c1cnc2ccc(-c3cc(Cl)c(O)c(Cl)c3)nc2c1N[C@H]1CC[C@H](CN(C)C)CC1` , is recorded EC50 strictly lower than 70 nM?
### Response 1

----------
- System: HEK-293T
- PROTOCOL DESCRIPTION: Cytotoxicity against human HEK293T cells transfected with DYRK1A co-tranfected with Renilla plasmid, pGL3-NFAT and NFATc1 assessed as reduction in luciferase activity by measuring cell number
- Format: cell-based
- EXPERIMENTAL SETUP: hek-293t
EXPERIMENTAL ENDPOINT: CC50 (nM)
One number for each entry, in nM.

CCOC(=O)c1cnc2ccc(-c3cc(Cl)c(O)c(Cl)c3)nc2c1NC1CCN(C)CC1 ... 1020
CCOC(=O)c1cnc2ccc(-c3cc(Cl)c(O)c(Cl)c3)nc2c1N[C@H]1CC[C@H](CNC(C)=O)CC1 ... 3340

Okay, now this molecule:
Lab note: `CC(=O)c1cnc2ccc(-c3cc(Cl)c(O)c(Cl)c3)nc2c1N[C@H]1CC[C@H](CN(C)C)CC1` gave CC50 of 64
